Please consider the recorded pKi for UniProtKB Q07817 in what follows.
// pKi here means minus log10 of the molar concentration (mol/L)

1. CC1(C)CC(c2ccc(Cl)cc2)=C2CN3CCN(c4ccc(C(=O)NS(=O)(=O)c5ccc(NC[C@H]6CC[C@](C)(O)CO6)c([N+](=O)[O-])c5)c(N5CCCOc6nc7[nH]ccc7cc65)c4)C[C@H]3COCCCO[C@@H]2C1: 8.03
2. CC1(C)CC(c2ccc(Cl)cc2)=C2CN3CCN(c4ccc(C(=O)NS(=O)(=O)c5cnc(OC[C@]6(F)CC[C@H](N7CCOCC7)CC6)c(Cl)c5)c(N5CCCOc6nc7[nH]ccc7cc65)c4)C[C@H]3COCCCO[C@@H]2C1: 7.76
3. CO[C@H]1CC[C@H](COc2ccc(S(=O)(=O)NC(=O)c3ccc(N4CCN5CC6=C(c7ccc(Cl)cc7)CC(C)(C)C[C@H]6OCCCOC[C@@H]5C4)cc3N3CCCOc4nc5[nH]ccc5cc43)cc2Cl)OC1: 6.70
4. CC1(C)CC(c2ccc(Cl)cc2)=C2CN3CCN(c4ccc(C(=O)NS(=O)(=O)c5ccc(NCC6(F)CCN(C7COC7)CC6)c([N+](=O)[O-])c5)c(N5CCCOc6nc7[nH]ccc7cc65)c4)C[C@H]3COCCCO[C@@H]2C1: 8.28
5. CC1(C)CC(c2ccc(Cl)cc2)=C2CN3CCN(c4ccc(C(=O)NS(=O)(=O)c5ccc(NC[C@H]6CC[C@H](N7CCOCC7)CO6)c([N+](=O)[O-])c5)c(N5CCCOc6nc7[nH]ccc7cc65)c4)C[C@H]3COCCCO[C@@H]2C1: 8.34

Considering C[C@@H]1CO[C@@H](CNc2ccc(S(=O)(=O)NC(=O)c3ccc(N4CCN5CC6=C(c7ccc(Cl)cc7)CC(C)(C)C[C@H]6OCCCOC[C@@H]5C4)cc3N3CCCOc4nc5[nH]ccc5cc43)cc2[N+](=O)[O-])CO1 , its pKi with UniProtKB Q07817 was recorded as 8.25

// returns pKi for CC1(C)CC(c2ccc(Cl)cc2)=C2CN3CCN(c4ccc(C(=O)NS(=O)(=O)c5ccc(NC[C@H]6C[C@@](O)(CF)C6)c([N+](=O)[O-])c5)c(N5CCCOc6nc7[nH]ccc7cc65)c4)C[C@H]3COCCCO[C@@H]2C1 with UniProtKB Q07817; value = 9.90

---

# Study target: Bcl-2 protein (Homo sapiens (Human), UniProt P10415)
# Sequence (P10415 other isoform, or with tags, fused parts or gaps): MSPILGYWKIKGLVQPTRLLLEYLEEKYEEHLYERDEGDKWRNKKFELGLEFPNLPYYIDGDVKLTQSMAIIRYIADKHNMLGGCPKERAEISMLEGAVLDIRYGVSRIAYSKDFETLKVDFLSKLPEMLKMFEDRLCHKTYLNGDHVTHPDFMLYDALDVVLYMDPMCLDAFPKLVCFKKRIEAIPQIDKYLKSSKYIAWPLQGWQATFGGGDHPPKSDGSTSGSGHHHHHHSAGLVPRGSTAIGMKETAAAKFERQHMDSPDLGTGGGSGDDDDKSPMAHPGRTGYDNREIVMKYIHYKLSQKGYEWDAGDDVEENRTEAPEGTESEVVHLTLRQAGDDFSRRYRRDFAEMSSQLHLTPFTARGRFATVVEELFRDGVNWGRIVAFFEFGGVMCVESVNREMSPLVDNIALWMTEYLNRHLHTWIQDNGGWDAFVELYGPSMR
# Protocol: TR-FRET binding assay, Bcl-2
# Assay setup: F-Bak peptide probe, GST-Bcl-2
Endpoint label: pKi
pKi field: float, defined as -log10 of concentration (mol/L).

These solved cases illustrate the format of a correct answer.
1) CC1(C)CC(c2ccc(Cl)cc2)=C2CN3CCN(c4ccc(C(=O)NS(=O)(=O)c5ccc(NC[C@H]6C[C@](O)(CF)C6)c([N+](=O)[O-])c5)c(N5CCCOc6nc7[nH]ccc7cc65)c4)C[C@H]3COCCCO[C@@H]2C1: 9.53
2) CC1(C)CC(c2ccc(Cl)cc2)=C2CN3CCN(c4ccc(C(=O)NS(=O)(=O)c5ccc(NC[C@H]6CC[C@@](C)(O)CC6)c([N+](=O)[O-])c5)c(N5CCCOc6nc7[nH]ccc7cc65)c4)C[C@H]3COCCCO[C@@H]2C1: 10.22
3) CC1(C)CC(c2ccc(Cl)cc2)=C2CN3CCN(c4ccc(C(=O)NS(=O)(=O)c5ccc(NC[C@H]6CC[C@](C)(O)CC6)c([N+](=O)[O-])c5)c(N5CCCOc6nc7[nH]ccc7cc65)c4)C[C@H]3COCCCO[C@@H]2C1: 9.40
4) CO[C@H]1C[C@H](CNc2ccc(S(=O)(=O)NC(=O)c3ccc(N4CCN5CC6=C(c7ccc(Cl)cc7)CC(C)(C)C[C@H]6OCCCOC[C@@H]5C4)cc3N3CCCOc4nc5[nH]ccc5cc43)cc2[N+](=O)[O-])C1: 9.65
5) CC1(C)CC(c2ccc(Cl)cc2)=C2CN3CCN(c4ccc(C(=O)NS(=O)(=O)c5cnc(OCC6(F)CCOCC6)c(Cl)c5)c(N5CCCOc6nc7[nH]ccc7cc65)c4)C[C@H]3COCCCO[C@@H]2C1: 10.30

compound CC1(C)CC(c2ccc(Cl)cc2)=C2CN3CCN(c4ccc(C(=O)NS(=O)(=O)c5ccc(NC[C@H]6C[C@](O)(C7CCC7)C6)c([N+](=O)[O-])c5)c(N5CCCOc6nc7[nH]ccc7cc65)c4)C[C@H]3COCCCO[C@@H]2C1 , pKi observed: 9.26

// field: pKi; key: CC1(C)CC(c2ccc(Cl)cc2)=C2CN3CCN(c4ccc(C(=O)NS(=O)(=O)c5ccc(NCC6(O)COC6)c([N+](=O)[O-])c5)c(N5CCCOc6nc7[nH]ccc7cc65)c4)C[C@H]3COCCCO[C@@H]2C1 ; value = 9.12

Entry CO[C@H]1CC[C@H](COc2ccc(S(=O)(=O)NC(=O)c3ccc(N4CCN5CC6=C(c7ccc(Cl)cc7)CC(C)(C)C[C@H]6OCCCOC[C@@H]5C4)cc3N3CCCOc4nc5[nH]ccc5cc43)cc2[N+](=O)[O-])OC1 , pKi reported as 9.57

So for CC1(C)CC(c2ccc(Cl)cc2)=C2CN3CCN(c4ccc(C(=O)NS(=O)(=O)c5ccc(NC[C@H]6CC[C@H](N7CCOCC7)CO6)c([N+](=O)[O-])c5)c(N5CCCOc6nc7[nH]ccc7cc65)c4)C[C@H]3COCCCO[C@@H]2C1 , the logged pKi turned out to be 9.96

---

# Study target: Bcl-2 protein (Homo sapiens (Human))
The entries below are paired with their reported Ki.
Report as a plain number; the unit nM is understood.

1) CC1(C)CC(c2ccc(Cl)cc2)=C2CN3CCN(c4ccc(C(=O)NS(=O)(=O)c5ccc(NC[C@@H]6CC[C@@H](O)CO6)c([N+](=O)[O-])c5)c(N5CCCOc6nc7[nH]ccc7cc65)c4)C[C@H]3COCCCO[C@@H]2C1: 1.72
2) CC1(C)CC(c2ccc(Cl)cc2)=C2CN3CCN(c4ccc(C(=O)NS(=O)(=O)c5cnc(OC[C@]6(F)CC[C@@H](N7CCOCC7)CC6)c(Cl)c5)c(N5CCCOc6nc7[nH]ccc7cc65)c4)C[C@H]3COCCCO[C@@H]2C1: 0.66
3) CO[C@H]1CC[C@H](CNc2ccc(S(=O)(=O)NC(=O)c3ccc(N4CCN5CC6=C(c7ccc(Cl)cc7)CC(C)(C)C[C@H]6OCCCOC[C@@H]5C4)cc3N3CCCOc4nc5[nH]ccc5cc43)cc2Cl)OC1: 0.667

Shift focus to the following entry.
get_value(item= CC1(C)CC(c2ccc(Cl)cc2)=C2CN3CCN(c4ccc(C(=O)NS(=O)(=O)c5cnc(OCC6(F)CCN(C7COC7)CC6)c(Cl)c5)c(N5CCCOc6nc7[nH]ccc7cc65)c4)C[C@H]3COCCCO[C@@H]2C1 , readout=Ki) returns 0.28

---

# Protocol: Bioavailability study: pharmacokinetics after single intravenous or oral dose in mouse
# Assay type: in vivo
# Assay setup: male, CD-1, mouse, plasma, po, 1 mg/kg, PO (1 mg/kg), harmonic mean
Endpoint label: half-life (h)
Response body: numeric value in h, unit text excluded.

Short answer for CO[C@@H]1CC[C@@H](CNc2ccc(S(=O)(=O)NC(=O)c3ccc(N4CCN5CC6=C(c7ccc(Cl)cc7)CC(C)(C)C[C@H]6OCCCOC[C@@H]5C4)cc3N3CCCOc4nc5[nH]ccc5cc43)cc2[N+](=O)[O-])OC1 : half-life was 8.7

---

# Protocol: Bioavailability study: pharmacokinetics after single intravenous or oral dose in mouse
# Assay type: in vivo
# Assay setup: male, CD-1, mouse, plasma, po, 1 mg/kg, PO (1 mg/kg), individual mouse
Endpoint label: half-life (min)
API: value field is a number in min; no unit string.

Notebook: CO[C@@H]1CC[C@@H](CNc2ccc(S(=O)(=O)NC(=O)c3ccc(N4CCN5CC6=C(c7ccc(Cl)cc7)CC(C)(C)C[C@H]6OCCCOC[C@@H]5C4)cc3N3CCCOc4nc5[nH]ccc5cc43)cc2[N+](=O)[O-])OC1 , half-life read as 522

---

# Protocol: Bioavailability study: pharmacokinetics after single intravenous or oral dose in mouse
# Type: in vivo
# Assay setup: male, CD-1, mouse, plasma, iv, 1 mg/kg, IV (1 mg/kg), individual mouse
Endpoint label: half-life (h)
Value expressed in h; do not type the unit.

The compound listed as CO[C@@H]1CC[C@@H](CNc2ccc(S(=O)(=O)NC(=O)c3ccc(N4CCN5CC6=C(c7ccc(Cl)cc7)CC(C)(C)C[C@H]6OCCCOC[C@@H]5C4)cc3N3CCCOc4nc5[nH]ccc5cc43)cc2[N+](=O)[O-])OC1 has a reported half-life of 10

---

Bcl-xL protein (Homo sapiens (Human), UniProt Q07817) measurements of Ki, listed per entry.
Sequence (Q07817 other isoform, or with tags, fused parts or gaps): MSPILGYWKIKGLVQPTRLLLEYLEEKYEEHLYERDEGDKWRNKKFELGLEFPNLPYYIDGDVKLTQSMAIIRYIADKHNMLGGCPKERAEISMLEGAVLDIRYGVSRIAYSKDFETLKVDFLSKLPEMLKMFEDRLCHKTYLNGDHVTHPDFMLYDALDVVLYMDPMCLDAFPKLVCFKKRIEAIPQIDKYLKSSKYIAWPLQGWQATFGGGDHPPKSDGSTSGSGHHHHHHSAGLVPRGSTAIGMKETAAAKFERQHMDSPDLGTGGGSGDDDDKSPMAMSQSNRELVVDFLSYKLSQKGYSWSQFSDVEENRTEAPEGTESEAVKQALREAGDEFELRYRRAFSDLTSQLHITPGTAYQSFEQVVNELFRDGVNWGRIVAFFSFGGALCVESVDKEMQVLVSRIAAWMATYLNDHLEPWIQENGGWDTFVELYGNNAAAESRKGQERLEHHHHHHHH
Number in nM, nothing else.

1. CC1(C)CC(c2ccc(Cl)cc2)=C2CN3CCN(c4ccc(C(=O)NS(=O)(=O)c5cnc(OCC6(F)CCN(C7COC7)CC6)c(Cl)c5)c(N5CCCOc6nc7[nH]ccc7cc65)c4)C[C@H]3COCCCO[C@@H]2C1: 18.8
2. CO[C@H]1C[C@H](CNc2ccc(S(=O)(=O)NC(=O)c3ccc(N4CCN5CC6=C(c7ccc(Cl)cc7)CC(C)(C)C[C@H]6OCCCOC[C@@H]5C4)cc3N3CCCOc4nc5[nH]ccc5cc43)cc2[N+](=O)[O-])C1: 25.2
3. CC1(C)CC(c2ccc(Cl)cc2)=C2CN3CCN(c4ccc(C(=O)NS(=O)(=O)c5ccc(NC[C@H]6CC[C@](C)(O)CC6)c([N+](=O)[O-])c5)c(N5CCCOc6nc7[nH]ccc7cc65)c4)C[C@H]3COCCCO[C@@H]2C1: 15.8

Here's the next entry for you.
With Bcl-xL protein (Homo sapiens (Human), UniProt Q07817) as the test system, C[C@H]1CCC(CNc2ccc(S(=O)(=O)NC(=O)c3ccc(N4CCN5CC6=C(c7ccc(Cl)cc7)CC(C)(C)C[C@H]6OCCCOCC5C4)cc3N3CCCOc4nc5[nH]ccc5cc43)cc2[N+](=O)[O-])OC1 (stereo partly drawn) showed Ki of 29.7
